# measurement_notes: Photostability in light stability chamber
# Format: physicochemical
# condition_notes: 1.0 mg/ml in ethanol, 19620 kJ/m^2 over 13 h, 15° C., UPLC 254 nm
Could you please mark fulfilled for values of % degradation in photostability assay (average) below 8% and not fulfilled for values at or above it?

Please indicate whether the reported % degradation in photostability assay (average) of COc1ccc([C@@H]2OC(=O)N(c3cc(-c4cnc(N)nc4C(F)(F)F)nc(N4CCOCC4)n3)[C@H]2CO)cc1 [Example 3] is strictly below 8%.
fulfilled

Quick check: does CC[C@H]1[C@H](c2ccc(OC)cc2)OC(=O)N1c1cc(-c2cnc(N)nc2C(F)(F)F)nc(N2CCOCC2)n1 (relative stereo) [Example 2] have % degradation in photostability assay (average) under 8%?
fulfilled

Determine whether this compound shows % degradation in photostability assay (average) lower than 8% (ties excluded): C[C@H]1[C@H](c2ccccc2)OC(=O)N1c1cc(-c2cnc(N)nc2C(F)(F)F)nc(N2CCOCC2)n1 [Example 5]
not fulfilled

Would you kindly verify if % degradation in photostability assay (average) of Nc1ncc(-c2cc(N3C(=O)O[C@@H](c4ccc(OCCO)cc4)[C@@H]3CO)nc(N3CCOCC3)n2)c(C(F)(F)F)n1 [Example 13] is strictly less than 8%?
fulfilled

Say whether its % degradation in photostability assay (average) is strictly beneath 8%. Entry: CC[C@H]1[C@H](c2cccc(OC)c2)OC(=O)N1c1cc(-c2cnc(N)nc2C(F)(F)F)nc(N2CCOCC2)n1 [Example 6]
fulfilled

Consider COCCOc1ccc([C@@H]2OC(=O)N(c3cc(-c4cnc(N)nc4C(F)(F)F)nc(N4CCOCC4)n3)[C@H]2CO)cc1 [Example 12] . Does its % degradation in photostability assay (average) lie strictly below 8%?
not fulfilled

Report whether reported % degradation in photostability assay (average) is lower than 8% (strictly) for Nc1ncc(-c2cc(N3C(=O)O[C@@H](c4ccccc4)[C@@H]3CO)nc(N3CCOCC3)n2)c(C(F)(F)F)n1 [Example 10]
fulfilled

* * *

# target: human PI3Kdelta p110 catalytic subunit (Rat-1 cells) (Homo sapiens (Human), UniProt O00329)
# Sequence (O00329 whole entry): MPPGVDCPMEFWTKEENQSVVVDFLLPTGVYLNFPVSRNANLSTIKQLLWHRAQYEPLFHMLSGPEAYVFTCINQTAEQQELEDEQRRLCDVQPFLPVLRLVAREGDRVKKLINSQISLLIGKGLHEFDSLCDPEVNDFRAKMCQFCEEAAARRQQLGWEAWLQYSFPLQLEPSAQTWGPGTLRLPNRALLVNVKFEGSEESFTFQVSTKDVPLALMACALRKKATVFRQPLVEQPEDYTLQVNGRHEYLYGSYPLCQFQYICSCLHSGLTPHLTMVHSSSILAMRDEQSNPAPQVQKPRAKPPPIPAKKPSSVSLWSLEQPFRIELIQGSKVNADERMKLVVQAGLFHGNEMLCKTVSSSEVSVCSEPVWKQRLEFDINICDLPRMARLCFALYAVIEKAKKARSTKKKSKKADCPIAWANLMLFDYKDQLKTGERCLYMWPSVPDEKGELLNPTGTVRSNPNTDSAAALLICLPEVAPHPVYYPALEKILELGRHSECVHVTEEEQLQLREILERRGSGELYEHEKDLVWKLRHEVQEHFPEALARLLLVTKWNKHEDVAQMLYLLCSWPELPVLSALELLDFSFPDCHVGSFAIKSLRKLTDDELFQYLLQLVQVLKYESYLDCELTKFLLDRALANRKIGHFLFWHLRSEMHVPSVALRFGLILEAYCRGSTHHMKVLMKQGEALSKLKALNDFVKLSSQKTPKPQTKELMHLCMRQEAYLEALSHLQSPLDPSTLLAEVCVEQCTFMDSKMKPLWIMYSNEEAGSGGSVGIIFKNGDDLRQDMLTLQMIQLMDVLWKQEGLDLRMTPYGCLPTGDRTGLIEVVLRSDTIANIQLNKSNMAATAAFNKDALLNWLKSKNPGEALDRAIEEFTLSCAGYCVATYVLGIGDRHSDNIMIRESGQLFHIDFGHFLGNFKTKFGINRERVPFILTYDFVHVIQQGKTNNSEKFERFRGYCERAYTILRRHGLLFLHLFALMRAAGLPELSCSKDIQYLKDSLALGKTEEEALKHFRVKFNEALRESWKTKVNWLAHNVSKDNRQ
# Sequence (Q63787 whole entry partner): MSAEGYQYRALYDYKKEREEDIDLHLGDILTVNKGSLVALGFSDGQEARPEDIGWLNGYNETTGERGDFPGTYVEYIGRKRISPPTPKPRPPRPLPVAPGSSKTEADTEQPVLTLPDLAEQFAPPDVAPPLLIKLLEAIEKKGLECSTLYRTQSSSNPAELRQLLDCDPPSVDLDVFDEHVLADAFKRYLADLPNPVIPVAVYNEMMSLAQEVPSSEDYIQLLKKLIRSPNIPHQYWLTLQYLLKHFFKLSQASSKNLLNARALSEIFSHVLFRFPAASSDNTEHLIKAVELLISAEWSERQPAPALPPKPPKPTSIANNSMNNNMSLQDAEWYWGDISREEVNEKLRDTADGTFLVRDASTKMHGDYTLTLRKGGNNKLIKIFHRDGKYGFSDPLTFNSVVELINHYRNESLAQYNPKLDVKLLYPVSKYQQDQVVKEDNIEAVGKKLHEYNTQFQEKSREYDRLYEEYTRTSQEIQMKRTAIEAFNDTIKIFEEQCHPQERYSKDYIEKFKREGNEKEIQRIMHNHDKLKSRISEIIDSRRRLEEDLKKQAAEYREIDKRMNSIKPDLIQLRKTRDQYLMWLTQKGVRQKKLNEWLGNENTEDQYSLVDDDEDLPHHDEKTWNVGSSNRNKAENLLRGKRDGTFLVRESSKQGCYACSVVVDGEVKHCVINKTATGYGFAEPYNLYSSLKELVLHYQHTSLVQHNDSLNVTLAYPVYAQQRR
# measurement_notes: Cellular assay PI3Kdelta, p-Akt(S473) SureFire in Rat-1_PI3Kdelta cells
# condition_notes: p-AKT(Ser473), 1 h treatment; read-out: Rat1-PI3Kd/IC50
Provide the reported IC50 of each item.
Record the value in µM, omitting the unit from your answer.

# return recorded IC50 for input COc1ccc([C@@H]2OC(=O)N(c3cc(-c4cnc(N)nc4C(F)(F)F)nc(N4CCOCC4)n3)[C@H]2CO)cc1 [Example 3]
0.006

Please look at this compound and report its IC50: CC[C@H]1[C@H](c2nccs2)OC(=O)N1c1cc(-c2cnc(N)nc2C(F)(F)F)nc(N2CCOCC2)n1 [Example 7]
0.123

Name the recorded IC50 of the compound listed here: Nc1ncc(-c2cc(N3C(=O)O[C@@H](c4ccccc4)[C@@H]3CO)nc(N3CCOCC3)n2)c(C(F)(F)F)n1 [Example 10]
0.022

Please report IC50 for the following compound: COCCOc1ccc([C@@H]2OC(=O)N(c3cc(-c4cnc(N)nc4C(F)(F)F)nc(N4CCOCC4)n3)[C@H]2CO)cc1 [Example 12]
0.004

For C[C@H]1[C@H](c2ccccc2)OC(=O)N1c1cc(-c2cnc(N)nc2C(F)(F)F)nc(N2CCOCC2)n1 [Example 5] , write its IC50.
0.119

Look up IC50 of CC1C(c2cccnc2)OC(=O)N1c1cc(-c2cnc(N)nc2C(F)(F)F)nc(N2CCOCC2)n1 (stereo not drawn) [Example 9] and report it.
0.011
